Target: matriptase (Homo sapiens, UniProt Q9Y5Y6)
Construct: purchased R&D Systems 3946-SEB
Sequence (Q9Y5Y6 615-855 limits assumed): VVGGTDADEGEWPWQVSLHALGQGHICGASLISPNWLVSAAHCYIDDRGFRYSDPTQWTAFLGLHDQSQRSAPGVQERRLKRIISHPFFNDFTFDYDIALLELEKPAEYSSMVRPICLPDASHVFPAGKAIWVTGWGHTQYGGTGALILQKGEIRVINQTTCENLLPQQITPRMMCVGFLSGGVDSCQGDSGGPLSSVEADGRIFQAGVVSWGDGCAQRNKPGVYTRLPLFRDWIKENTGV
Experiment: FRET peptide cleavage efficiency with matriptase
Assay type: biochemical
Conditions: t = 120 min; 200 uM linker, 1 ug/ml protease, 37° C., buffer B pH 9.0
Square brackets hold non-standard residues; d marks the D form. Ends that are not written are not given here. Tyr(3-NO2) = N[C@@H](Cc1ccc(O)c([N+](=O)[O-])c1)C(=O)O; 2Abz = Nc1ccccc1C(=O)O
One threshold, 90%, splits the recorded % cleavage Matriptase t = 120 min values: lower ones are 1.0, equal or higher ones are 0.0.

[
  {
    "SUBSTANCE": "RGRRPLGYFGKL ([2Abz]RGRRPLGYFGKL[Tyr(3-NO2)]-NH2) [LNK057]",
    "LABEL_VALUE": 0.0
  },
  {
    "SUBSTANCE": "SGRVLRKAGPAGLVG ([2Abz]SGRVLRKAGPAGLVG[Tyr(3-NO2)]-NH2) [LNK013]",
    "LABEL_VALUE": 0.0
  },
  {
    "SUBSTANCE": "SGRHSSKLQPLGYFGKL ([2Abz]SGRHSSKLQPLGYFGKL[Tyr(3-NO2)]-NH2) [LNK063]",
    "LABEL_VALUE": 1.0
  },
  {
    "SUBSTANCE": "SSLQSSPG ([2Abz]SSLQSSPG[Tyr(3-NO2)]-NH2) [LNK066]",
    "LABEL_VALUE": 1.0
  },
  {
    "SUBSTANCE": "RGRRVANPLGYFGKL ([2Abz]RGRRVANPLGYFGKL[Tyr(3-NO2)]-NH2) [LNK058]",
    "LABEL_VALUE": 0.0
  },
  {
    "SUBSTANCE": "SGRVLPANLVG ([2Abz]SGRVLPANLVG[Tyr(3-NO2)]-NH2) [LNK015]",
    "LABEL_VALUE": 0.0
  },
  {
    "SUBSTANCE": "RGRRHSSKLQ ([2Abz]RGRRHSSKLQ[Tyr(3-NO2)]-NH2) [LNK052]",
    "LABEL_VALUE": 0.0
  },
  {
    "SUBSTANCE": "SGRVLTLRKAGPANLVG ([2Abz]SGRVLTLRKAGPANLVG[Tyr(3-NO2)]-NH2) [LNK012]",
    "LABEL_VALUE": 0.0
  },
  {
    "SUBSTANCE": "SPLGLAGS ([2Abz]SPLGLAGS[Tyr(3-NO2)]-NH2) [LNK030]",
    "LABEL_VALUE": 1.0
  },
  {
    "SUBSTANCE": "SGRVLTLRKAPWGLLE ([2Abz]SGRVLTLRKAPWGLLE[Tyr(3-NO2)]-NH2) [LNK004]",
    "LABEL_VALUE": 0.0
  },
  {
    "SUBSTANCE": "ISQYSSAT ([2Abz]ISQYSSAT[Tyr(3-NO2)]-NH2) [LNK070]",
    "LABEL_VALUE": 1.0
  },
  {
    "SUBSTANCE": "SGRVLPLGMRA ([2Abz]SGRVLPLGMRA[Tyr(3-NO2)]-NH2) [LNK023]",
    "LABEL_VALUE": 0.0
  },
  {
    "SUBSTANCE": "SGRVLRKAGPANLVG ([2Abz]SGRVLRKAGPANLVG[Tyr(3-NO2)]-NH2) [LNK014]",
    "LABEL_VALUE": 0.0
  },
  {
    "SUBSTANCE": "GSSYYSGA ([2Abz]GSSYYSGA[Tyr(3-NO2)]-NH2) [LNK079]",
    "LABEL_VALUE": 1.0
  },
  {
    "SUBSTANCE": "SGRVANLVG (not fully specified (N-terminus, C-terminus)) [LNK017]",
    "LABEL_VALUE": 0.0
  },
  {
    "SUBSTANCE": "RRLHYSL ([2Abz]RRLHYSL[Tyr(3-NO2)]-NH2) [LNK073]",
    "LABEL_VALUE": 1.0
  },
  {
    "SUBSTANCE": "RQRRSAPLGLAG ([2Abz]RQRRSAPLGLAG[Tyr(3-NO2)]-NH2) [LNK009]",
    "LABEL_VALUE": 1.0
  },
  {
    "SUBSTANCE": "RGRRVANPLGLAGSG ([2Abz]RGRRVANPLGLAGSG[Tyr(3-NO2)]-NH2) [LNK050]",
    "LABEL_VALUE": 0.0
  },
  {
    "SUBSTANCE": "SSQYSSPG ([2Abz]SSQYSSPG[Tyr(3-NO2)]-NH2) [LNK069]",
    "LABEL_VALUE": 1.0
  }
]

###

Target: MMP-2 (Homo sapiens, UniProt P08253)
Construct: purchased SIGMA PF023
Sequence (P08253 110-660): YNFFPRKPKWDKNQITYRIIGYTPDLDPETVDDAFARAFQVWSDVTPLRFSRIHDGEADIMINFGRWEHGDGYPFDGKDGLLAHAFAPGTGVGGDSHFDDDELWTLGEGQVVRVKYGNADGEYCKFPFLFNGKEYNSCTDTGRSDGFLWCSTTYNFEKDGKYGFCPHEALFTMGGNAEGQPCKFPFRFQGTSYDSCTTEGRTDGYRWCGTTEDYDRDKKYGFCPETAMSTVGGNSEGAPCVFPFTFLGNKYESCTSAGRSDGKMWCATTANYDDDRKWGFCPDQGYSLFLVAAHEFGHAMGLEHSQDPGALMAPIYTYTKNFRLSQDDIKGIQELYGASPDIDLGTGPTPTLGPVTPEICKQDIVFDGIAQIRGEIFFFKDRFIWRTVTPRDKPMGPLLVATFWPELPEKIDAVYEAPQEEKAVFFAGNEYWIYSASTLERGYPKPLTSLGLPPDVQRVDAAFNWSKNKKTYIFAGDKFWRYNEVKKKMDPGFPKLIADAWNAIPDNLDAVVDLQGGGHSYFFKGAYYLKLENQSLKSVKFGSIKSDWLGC
Assay: FRET peptide cleavage efficiency with MMP-2
Assay type: biochemical
Settings: t = 60 min (Table 9)
Square brackets hold non-standard residues; d marks the D form. Ends that are not written are not given here. Tyr(3-NO2) = N[C@@H](Cc1ccc(O)c([N+](=O)[O-])c1)C(=O)O; 2Abz = Nc1ccccc1C(=O)O
OUTCOME_MEASURE: % cleavage MMP-2 t = 60 min (%)

[
  {
    "SEQUENCE_STRING": "RGRKSPQPLVD ([2Abz]RGRKSPQPLVD[Tyr(3-NO2)]-NH2) [LNK040]",
    "SUBJECT_OF_TEST": "MMP-2 (Homo sapiens, UniProt P08253)",
    "OUTCOME_MEASURE": "% cleavage MMP-2 t = 60 min",
    "READOUT_NUMBER": 28
  },
  {
    "SEQUENCE_STRING": "RGRRVANPLGLAGSG ([2Abz]RGRRVANPLGLAGSG[Tyr(3-NO2)]-NH2) [LNK050]",
    "SUBJECT_OF_TEST": "MMP-2 (Homo sapiens, UniProt P08253)",
    "OUTCOME_MEASURE": "% cleavage MMP-2 t = 60 min",
    "READOUT_NUMBER": 100
  },
  {
    "SEQUENCE_STRING": "RGRRVANYFGKL ([2Abz]RGRRVANYFGKL[Tyr(3-NO2)]-NH2) [LNK055]",
    "SUBJECT_OF_TEST": "MMP-2 (Homo sapiens, UniProt P08253)",
    "OUTCOME_MEASURE": "% cleavage MMP-2 t = 60 min",
    "READOUT_NUMBER": 100
  },
  {
    "SEQUENCE_STRING": "HSSKLQYFGKL ([2Abz]HSSKLQYFGKL[Tyr(3-NO2)]-NH2) [LNK061]",
    "SUBJECT_OF_TEST": "MMP-2 (Homo sapiens, UniProt P08253)",
    "OUTCOME_MEASURE": "% cleavage MMP-2 t = 60 min",
    "READOUT_NUMBER": 74
  },
  {
    "SEQUENCE_STRING": "GSGSGSGS ([2Abz]GSGSGSGS[Tyr(3-NO2)]-NH2) [LNK064]",
    "SUBJECT_OF_TEST": "MMP-2 (Homo sapiens, UniProt P08253)",
    "OUTCOME_MEASURE": "% cleavage MMP-2 t = 60 min",
    "READOUT_NUMBER": 0
  }
]

Cited source for all entries: patent US20240400614A1
